target: UniProtKB P43116; experiment: EP2 receptor modulators, dose response, cell-based, human EP2, PGE2 EC50 shift (AID 1421); settings: EP2-expressing cells, PGE2 EC50 shift by compound; measured here: PGE2 EC50 at 6.7 uM compound
Sequence (P43116 whole entry, looked up): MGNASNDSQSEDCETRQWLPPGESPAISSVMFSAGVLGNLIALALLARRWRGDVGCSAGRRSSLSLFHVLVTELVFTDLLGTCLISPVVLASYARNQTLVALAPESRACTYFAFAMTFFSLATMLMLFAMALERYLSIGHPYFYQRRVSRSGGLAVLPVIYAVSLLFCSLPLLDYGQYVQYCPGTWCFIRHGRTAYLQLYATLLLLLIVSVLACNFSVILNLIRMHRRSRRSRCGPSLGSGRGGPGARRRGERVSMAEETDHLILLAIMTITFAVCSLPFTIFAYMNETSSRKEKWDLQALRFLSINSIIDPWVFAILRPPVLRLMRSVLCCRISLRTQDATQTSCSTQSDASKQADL
Note to self: PGE2 EC50 with compound under 1 nM means true (1), ties and anything higher get false (0).

Compound: CCOc1ccc(-c2nnc3n2N=C(c2ccc(OC)cc2)CS3)cc1
System: UniProtKB P43116
Label Class: true (1)
--
Compound: CCOC(=O)c1c(NC(=O)COC(=O)Cn2cnc3ccccc32)sc2c1CCC(C)C2 (configuration not stated)
System: UniProtKB P43116
Label Class: true (1)
--
Compound: CC(C)(C)C1CCC(OC(=O)c2ccncc2)CC1 (configuration not stated)
System: UniProtKB P43116
Label Class: false (0)
--
Compound: CC(=O)N1Cc2ccccc2C(C)CC12CCCCC2 (configuration not stated)
System: UniProtKB P43116
Label Class: true (1)
--
Compound: O=C(Nc1ccccc1N1CCCC1)c1cc2ccccc2o1
System: UniProtKB P43116
Label Class: false (0)
--
Compound: COc1cccc(C2=NN(C(=O)c3cccs3)C(O)(C(F)(F)F)C2)c1 (configuration not stated)
System: UniProtKB P43116
Label Class: false (0)
--
Compound: O=C(Nc1nc(-c2cccs2)c(-c2ccccc2)s1)c1ccco1
System: UniProtKB P43116
Label Class: false (0)
--
Compound: CCCOc1ccc(/C=N/Nc2ccc(C(=O)O)cc2)c(OCCC)c1
System: UniProtKB P43116
Label Class: true (1)
--
Compound: Cc1cc(C)c(S(=O)(=O)c2ccccc2)c(OC(=O)c2c(Cl)cc(Cl)cc2Cl)n1
System: UniProtKB P43116
Label Class: false (0)
--
Compound: CCOC(=O)c1ccccc1NC(=O)CSc1ccccc1
System: UniProtKB P43116
Label Class: false (0)
--
Compound: CCCCn1c(-c2csc(CCC)c2)n[nH]c1=S
System: UniProtKB P43116
Label Class: false (0)
--
Compound: CCOc1cc(-c2noc(-c3ccncc3)n2)cc(Br)c1OC
System: UniProtKB P43116
Label Class: true (1)

----------
molecular target: UniProtKB P43116; assay: EP2 receptor modulators, dose response, cell-based, human EP2, PGE2 EC50 shift (AID 1421); conditions: EP2-expressing cells, PGE2 EC50 shift by compound; measured here: PGE2 EC50 at 6.7 uM compound
PGE2 EC50 with compound for assorted compounds

Compound: c1cncc(-c2nc(N3CCOCC3)c3c4c(sc3n2)CCC4)c1
PGE2 EC50 with compound (nM): 1.15

Compound: CCCn1c(Nc2nc3ccccc3n2C)nc2ccccc21
PGE2 EC50 with compound (nM): 1.02

Compound: CCOC(=O)c1c(NC(=O)c2cccs2)sc(C)c1CC
PGE2 EC50 with compound (nM): 1.51

Compound: CC1=CC(C)(C)N2C(=O)C3(SCC(=O)N3c3ccc(F)cc3)c3cc(C)cc1c32 (stereo not drawn)
PGE2 EC50 with compound (nM): 1.12

Compound: Cc1cccnc1N(C(=O)Nc1ccccc1)C1=NCC(C)(C)S1
PGE2 EC50 with compound (nM): 0.57

Compound: Cc1cnn(-c2nc(-c3ccccc3)cc(-c3ccccc3)n2)c1
PGE2 EC50 with compound (nM): 0.95

Compound: C=CCc1cc(C=C2C(=O)N(C)C(=O)N(C)C2=O)cc(OCC)c1OCc1ccccc1
PGE2 EC50 with compound (nM): 0.94

Compound: Cc1ccc(-n2c(=S)[nH]c3c(oc4ccccc43)c2=O)cc1
PGE2 EC50 with compound (nM): 2.77

Compound: COc1ccc(CN2C(=O)CN=C2Nc2cc(C)ccc2C)cc1
PGE2 EC50 with compound (nM): 1.04

Compound: Cc1sc(NC(=O)c2ccccc2F)c(CN2CCCCC2C)c1C (stereo not drawn)
PGE2 EC50 with compound (nM): 0.88

Compound: COC(=O)c1sc2nc(-c3ccccc3)c3c(c2c1N)CCCC3
PGE2 EC50 with compound (nM): 0.33

Compound: CN(Cc1cccs1)c1nc(-c2cccnc2)nc2ccccc12
PGE2 EC50 with compound (nM): 1.07

Compound: CCOC(=O)c1oc2ccccc2c1NC(=O)c1cccc(OC)c1OC
PGE2 EC50 with compound (nM): 0.98

Compound: C=CCOc1ccc2c(c1)C(=NO)c1cc(OCC=C)ccc1-2
PGE2 EC50 with compound (nM): 0.62

Compound: COc1ccc(-n2c(-c3ccccc3)nnc2-c2ccc(Cl)cc2)cc1
PGE2 EC50 with compound (nM): 1.23

Compound: O=C(c1ccc(Cl)cc1)c1oc2ccccc2c1CS(=O)c1ccc(Cl)cc1 (stereo not drawn)
PGE2 EC50 with compound (nM): 0.88

Compound: CCCCOC(=O)n1c(=S)oc2cc(Cl)ccc21
PGE2 EC50 with compound (nM): 0.85

Compound: Cc1cccc(C(=O)c2cnc3ccccc3c2-c2ccccc2)c1
PGE2 EC50 with compound (nM): 0.95

Compound: CCNc1nc(NCC)nc(SCCOc2ccc(C)cc2)n1
PGE2 EC50 with compound (nM): 0.7

Compound: O=C(CSCc1c(Cl)cccc1Cl)Nc1ccccc1-c1ccccc1
PGE2 EC50 with compound (nM): 1.36

Compound: CCn1c(=NC(=O)c2ccc(S(=O)(=O)N(C)C)cc2)sc2cccc(OC)c21
PGE2 EC50 with compound (nM): 1.17

Compound: Cc1cc(SC(C)C(=O)O)nc2ccccc12 (stereo not drawn)
PGE2 EC50 with compound (nM): 1.18

Compound: COc1cccc(OCC(=O)Nc2ccccc2-c2ccccc2)c1
PGE2 EC50 with compound (nM): 1.17
